The reported numbers originate from the supplement of paper PMC9170038.

Test system: MS2 coat protein
Assay Method Text: apparent KD of MS2 coat protein; higher = weaker reporter binding
Test Conditions: Eterna round: R107; input ligand: theophylline 20 uM
Classify by measured apparent KD of MS2 coat protein: Fulfilled if it is equal to or exceeds 30 nM, Not fulfilled if it is smaller.

# count of solved cases: 6
{"columns": ["Residues", "Label Class"],
 "data": [
  ["AGUGUUGUCUGAAGGAGCGGCCCUUGAUCCUCAUGAGACAUGAGGAUCACCCAUGUCUCGGGCCAGGUAGGUCGCAGGCAUCACA [Omei Arg B SS v1]", "Fulfilled"],
  ["GAUCGAUCAUAGUACGAUCGUUUUGUGGAAGGAGCGCAGAGGACUGCAGGUAGGUCGCCACAUGAGGAUCACCCAUGUCAGGAUU [XARG-A 24]", "Fulfilled"],
  ["UUGUUAUACGGAAGGAGCGUGUAAGAUUAAGAACAUGAGGAUCACCCAUGUUUUAAGGGAACACAGGUAGGUCGCCGUAUAGUGG [11.P]", "Not fulfilled"],
  ["GAAGACAUGAGGAUCACCCAUGUUACACACCGAGGACCGGUACGGCCGCCACUCGUAGGCCCUCGGCUCACCUGAGAUCCGCAUC [theeternabot_sameState_MS2_Trp_A_11]", "Fulfilled"],
  ["AAUAAUAACAUGGGUGCACGAGUGGCAUAACGAGGACCGGUACGGCCGCCACUCGAACAUGAGGAUCACCCAUGUAGCCACUCGA [M'-T'-T-MS2-T'' - Design 4]", "Fulfilled"],
  ["GAGACGUCGGGAAGGAGCGCAUCCAAACCACACAUGAGGAUCACCCAUGUAUAAAUAUGCAUGCAGGUAGGUCGCCCGGUGUCCC [Diaxeon]", "Fulfilled"]
]}

Check if apparent KD of MS2 coat protein >= 30 nM (inclusive). Item: GGUACAUGAGGAUCACCCAUGUGUCAUGAUACCAGACAUGAAAAUGUCCCUUGGCAGCAUGCCAGACGGCCGCGUUUAGCGGCCG [Oresin]
Not fulfilled

Quick check, apparent KD of MS2 coat protein >= 30 nM? GUUAUGGACCUGGAUACCAGCUGGUACAAGGGCGGUCUACAUGAGGAUCACCCAUGUGUCAGCCCUUGGCAGCCAGCAACCGGCA [Teraus]
Not fulfilled

---

Tested on: MS2 coat protein
Assay Method Text: apparent KD of MS2 coat protein; designed switch direction (-1 OFF switch, 1 ON switch): 1; higher = weaker reporter binding
Test Conditions: input ligand: none
Readout Label: apparent KD of MS2 coat protein (µM)
Use µM as the unit, but write only the number.

# annotated cases, reported apparent KD of MS2 coat protein shown
{"columns": ["Residues", "apparent KD of MS2 coat protein / µM"],
 "data": [
  ["CAGCACUAUCGAGAGGAUAUGCGGUGAUGGACAUGAGGAUCACCCAUGUUAGCGGUAGCAUCACGGCAGAAGGCUCUGCUGCUGC [Soteed Omei mod 39] (Eterna round: R96, puzzle: Same State 2)", 0.0285],
  ["GAAAGCAUGGGAGGAUAUAGCCUCUAUGAAAGGCUAGAAGGCCCUGGCCACAUGAGGAUCACCCAUGUGAAAUAAAUAGAAGAA [Raarceza] (Eterna round: R96, puzzle: Same State NG 1)", 0.218],
  ["AGAGCCGGCACCGAGGAUAUUCAUAUUAAAACAUGAGGAUCACCCAUGUAGGCCAGAAGGCCUUGGGAGAAGGCGGAUCGGCUCG [Xeonanis - 7] (Eterna round: R96, puzzle: Same State 2)", 0.559],
  ["CUACGAGCGCCACAGGAUAUACUGAGACUCACAUGAGGAUCACCCAUGUCCAAUUCUCCCAAAUAGUAGAAGGGUGACGCGCUCG [Maenve] (Eterna round: R96, puzzle: Same State 2)", 0.562],
  ["GGUGGGUUGCUACCGACACAUGAGGAUCACCCAUGUUUUGGGAAGGAUAUGGUACCUAUUUGGUACCAGAAGGUCCCGUUGGUG [salish99_SSNG3_r04_707] (Eterna round: R96, puzzle: Same State NG 3)", 0.133],
  ["AAAAUGGUAUGUUACAUGAGGAUCACCCAUGUACGGUCAUCUGAGGAUAUGGUGAUGUAGAAGAAUCAGAAGGCAGACAUUUAA [AK SSNG3-V2-26] (Eterna round: R96, puzzle: Same State NG 3)", 0.0323],
  ["AUUAAACAUGAGGAUCACCCAUGUCAACAAAGUCGAGGAUAUGGGCAAAUAAAAUAAGUACCAGAAGGCGAAUAAU [salish99_ss1_r3_066] (Eterna round: R96, puzzle: Same State 1)", 0.103],
  ["GUGGUGAAUUAAGGAUAUCGAGUCUAGAUGUUAAACAUGAGGAUCACCCAUGUGGGUUGCGGUGUCGAGAAGGUGGUUUACGGG [salish99_SSNG2_r04_510] (Eterna round: R96, puzzle: Same State NG 2)", 0.0723]
]}

Could you now look at the following sequence, please?
Kindly indicate its recorded apparent KD of MS2 coat protein. Item: AUUAUUUAUGCAGGAUAUGAUUAACAUGAGGAUCACCCAUGUGGUGUUGUGAGUAAGGAGAGUGAUCAGAAGGGCAUUUUUGUU [JMF's solution 53] (Eterna round: R96, puzzle: Same State NG 2)
0.657
